# credit: patent US20220218805A1

target: T1, tau oligomers (SynAging) (UniProt P10636-8 1-441, limits assumed); assay: SPR, oligomer RU / monomer RU (reference: tau monomers)
T1 construct: also called misfolded oligomeric tau polypeptide
T1 sequence (P10636 other isoform, or with tags, fused parts or gaps limits assumed): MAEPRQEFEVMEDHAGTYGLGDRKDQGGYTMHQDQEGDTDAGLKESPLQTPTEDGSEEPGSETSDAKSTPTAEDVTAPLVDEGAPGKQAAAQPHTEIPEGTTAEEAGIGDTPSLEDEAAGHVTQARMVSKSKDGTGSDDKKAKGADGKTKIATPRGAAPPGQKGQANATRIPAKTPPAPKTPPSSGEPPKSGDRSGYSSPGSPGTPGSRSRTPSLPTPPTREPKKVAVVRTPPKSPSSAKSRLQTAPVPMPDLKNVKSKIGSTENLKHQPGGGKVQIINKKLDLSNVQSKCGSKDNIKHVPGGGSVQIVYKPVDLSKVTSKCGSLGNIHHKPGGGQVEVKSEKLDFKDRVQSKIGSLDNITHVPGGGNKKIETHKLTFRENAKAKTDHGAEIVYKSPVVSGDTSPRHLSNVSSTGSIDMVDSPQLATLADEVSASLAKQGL
property label: Ratio (O/M)

Ab10 (clone 9D12) (antibody, V domains shown, kappa light chain) VH: QIQLVQSGPELKKPGETVKISCKASGYTFTNYGMNWVKQAPGKGLKWMGWINTYTGEPTYTDDFKGRFAFSLETSASTAYLQINNLKNEDTATYFCGRGIRDYYTMDYWGQGTSVTVSS VL: DIVMSQSPSSLAVSAGEKVTMSCKSSQSLLNNRTRKNYLAWYQQKPGQSPKLLIYWASTRESGVPDRFTGSGSGTDFTLTISSVQAEDLAVYYCKQSYNLYTFGGGTKLEIK
2.7
Ab29 (clone 12D11) (antibody, V domains shown, tested as hybridoma supernatant; kappa light chain) VH: QIQLVQSGPELKKPGETVKISCKASGYTFTNYGMNWVKQAPGKGLKWMGWINTYSGEPTYVDDFKGRFAFSLETSASTAYLQINNLKNEDMATYFCARSPGAYYTLDYWGQGTSVTVSS VL: DIVMSQSPSSLAVSAGEKVTMSCKSSQSLLNSRTRKNYLAWYQQKPGQSPKLLIYWASTRESGVPDRFTGSGSGTDFTLTISSVQAEDLAVYYCKQSYNLYTFGGGTKLEIK
2.1
Ab23 (clone 8E11) (antibody, V domains shown, kappa light chain; also called 8E11.1) VH: QVQLQQSGAELVRPGSSVKISCKASGYAFSSYWMNWVKQRPGQGLEWIGQIYPGDGDTNYNGKFKGKATLTADKSSSTAYMQLSSLTSEDSAVYLCASQIYDGYYTFTYWGQGTLVTVSA VL: DIVMSQSPSSLAVSAGEKVTMSCKSSQSLLNSRTRKNYLAWYQQKPGQSPKLLIYWASTRVSGVPDRFTGSGSGTDFTLTISSVQAEDLAVYYCKQSYNLWTFGGGTKLEIK
2.2
Ab21 (clone 2C6) (antibody, V domains shown, tested as hybridoma supernatant; kappa light chain; also called 2C6.1) VH: EVQLQQSGAELVKPGASVKLSCTASGFNIKDTHMHWVKQRPEQGLEWIGKIDPSNGNTQYDPKFQGKATITADTSSNTAYLQLSSLTSEDTAVYYCATGFAYWGQGTLVTVSA VL: DIQMTQSPASLSASVGETVTITCRASGNIHNYLAWYQQKQGKSPQLLVYNAKTLADGVPSRFSGSGSGTQYSLKINSLQPEDFGSYYCQHFWYTPWTFGGGTKLEIK
1.9
Ab12 (clone 10B10) (antibody, V domains shown, tested as hybridoma supernatant; kappa light chain; also called 10B10.1) VH: QIQLVQSGPELKKPGETVKISCKASGYTFTNFGMNWVKQAPGKGLKWMGWINTFTGEPTYVDDFKGRFAFSLETSATTAYLQINNLKNEDTATYFCARSPGRVYTLDYWGQGTSVTVSS VL: DIVMSQSPSSLAVSAGEKVTMSCKSSQSLLNSRTRKNYLAWYQQKPGQSPKLLIYWASTRESGVPDRFTGSGSGTDFTLTISSVQAEDLAVYYCKQSYNLYTFGGGTKLEIK
2.9
